test system: H929 multiple myeloma tumour line; experiment: In vitro cytotoxicity, Microculture Tetrazolium Assay; assay type: cell-based; settings: H929 cells, 48 hours exposure, MTT; read-out: IC50 (μM) MTT H929
Can you tell me IC50 for the items I'm about to list?
The reply should be a number in µM, with the unit left off.

Quick one: IC50 of Cc1c(-c2c(-c3ccc(F)cc3)sc3ncnc(OC(Cc4ccccc4OCc4cnccn4)C(=O)O)c23)ccc(OCC2CCN(C)C2)c1Cl (stereo not drawn) [Example 139] ?
0.636

Input Cc1c(-c2c(-c3ccc(Cl)o3)sc3ncnc(OC(Cc4ccccc4OCC4CCCO4)C(=O)O)c23)ccc(OCCN2CCN(C)CC2)c1Cl (stereo not drawn)
0.047

Input Cc1c(-c2c(-c3ccco3)sc3ncnc(OC(Cc4ccccc4F)C(=O)O)c23)ccc(OCCN2CCN(C)CC2)c1Cl (stereo not drawn) [Example 357]
3.39

Input COc1ccccc1CC(Oc1ncnc2sc(-c3ccco3)c(-c3ccc(OC4CCCN(C)C4)c(Cl)c3C)c12)C(=O)O (single isomer, unassigned) [Example 301]
0.108

Input Cc1c(-c2c(-c3ccc(F)cc3)sc3ncnc(OC(Cc4ccccc4OCc4cnccn4)C(=O)O)c23)ccc(OCC2CCN(C)C2)c1Cl (stereo not drawn) [Example 140]
0.205

Input Cc1c(-c2c(-c3cccc(F)c3)sc3ncnc(O[C@H](Cc4ccccc4O)C(=O)O)c23)ccc(OCCN2CCN(C)CC2)c1Cl
0.591

Input Cc1ccc(-c2sc3ncnc(O[C@H](Cc4ccccc4)C(=O)O)c3c2-c2ccc(OCCN3CCN(C)CC3)c(Cl)c2C)s1
2.25

Input Cc1c(-c2c(-c3ccc(F)cc3)sc3ncnc(OC(Cc4ccccc4OCc4cnccn4)C(=O)O)c23)ccc(OC2CCCN(C)C2)c1Cl (single isomer, unassigned) [Example 142]
1.67

Input Cc1c(-c2c(-c3ccco3)sc3ncnc(O[C@H](Cc4ccccc4OCc4cc(-c5ccccc5)ncn4)C(=O)O)c23)ccc(OCCN2CCN(C)CC2)c1Cl
0.049

Input COc1ccccc1CC(Oc1ncnc2sc(-c3ccco3)c(-c3ccc(OC4CN5CCC4CC5)c(Cl)c3C)c12)C(=O)O (single isomer, unassigned)
1.5

Input Cc1cscc1-c1sc2ncnc(O[C@H](Cc3ccccc3)C(=O)O)c2c1-c1ccc(OCCN2CCN(C)CC2)c(Cl)c1C
5.07

Input Cc1c(-c2c(-c3ccc(F)cc3)sc3ncnc(O[C@H](Cc4ccccc4OCc4cnccn4)C(=O)O)c23)ccc(OCC2CCCCN(C)C2)c1Cl (stereo partly drawn)
1.6
